- Tested on: K-562 leukemia
- PROCEDURE_DETAILS: NCI tumour cell line growth inhibition, 48 h
MEASURE: GI50

Below: 2 compounds and their reported GI50.
- N#CC1C(N)=NNC12Nc1ccccc1S2 (stereo not drawn): 14.1 µM
- Clc1nc(Cl)c2ncn(CCOCCn3cnc4c(Cl)nc(Cl)nc43)c2n1: 0.361 µM

Return GI50 (reported value) for this compound: O=C1C(Nc2cccc(O)c2)=C(Sc2ccccc2)C(=O)N1Cc1ccccc1 3.71 µM

---

- Tested on: OVCAR-4 ovarian
- PROCEDURE_DETAILS: NCI tumour cell line growth inhibition, 48 h
Entries annotated with measured TGI

Check out these entries, answers already filled in.
* N#C/C(=C1\OC(=N)C(c2ccc(Cl)cc2Cl)C1=O)c1ccc(Cl)cc1Cl (stereo unspecified) | > 100 µM
* C/C(N)=N/OCc1nc(C)no1 | > 100 µM
* CC(N)CC(=O)O (stereo unspecified) | > 5000 µM
* O=C1/C(=C/c2ccccc2[N+](=O)[O-])COc2ccc(O)cc21 | 8.63 µM
* CCOC(=O)C(Cc1ccc(N(CCCl)CCCl)cc1)NC(=O)C(Cc1ccccc1)NC(C)=O (stereo unspecified) | 0.0353 µM
* CC(=O)Nc1ccc(S(=O)(=O)NN(C)S(=O)(=O)c2ccc(C)cc2)cc1 | > 100 µM

Now turn to the next compound.
Give OVCAR-4 ovarian TGI for the following compound: O=C1/C(=C/c2ccccc2O)N=C(c2ccccc2)N1c1cc(C(F)(F)F)ccc1Cl > 100 µM

---

- System: BT-549 breast
- PROCEDURE_DETAILS: NCI tumour cell line growth inhibition, 48 h
MEASURE: GI50

Examples from the recorded data:
- Cc1ccc(Cl)cc1-n1c(C)nc2c(cnn2-c2ccnc3c(C(F)(F)F)cccc23)c1=O: > 100 µM
- COc1ccc(-c2[nH]c3ccccc3c2/C=C(\C#N)S(=O)(=O)c2ccccc2)cc1: 1.63 µM
- Cn1c(C(=O)c2cccc3ccccc23)nc2ccccc21: > 100 µM
- COC1=C(OC)[C@]2(OC)c3c(O)c(OC)c4c(c3O[C@@]23O[C@@H](c2ccccc2)CC=C3C1=O)[C@@H](OC)C[C@H](c1ccccc1)O4: 0.461 µM

Specify GI50 for Nc1nc(-c2ccc(Cl)cc2)nc2c1sc(=S)n2-c1ccccc1 and stop. 6.5 µM

---

- Test system: SF-539 CNS
- PROCEDURE_DETAILS: NCI tumour cell line growth inhibition, 48 h; in the data active = GI50 below about 0.43 µM; inactive = the rest
Choose one outcome from this list and give only that: class 1 for active, class 0 for inactive

These solved cases illustrate the format of a correct answer.
- Clc1ccc([I+]c2ccc(Cl)cc2Cl)c(Cl)c1: class 0
- COC1=C(OC)C(=O)C(CCCCCCCCCCO)=C(C)C1=O: class 0
- c1ccc(C2CCCCC2)c(OCCCCCN2CCNCC2)c1: class 0
- O=C(O)CCCc1ccccc1: class 0

Please state the recorded outcome for this compound: O=S(=O)(NCCCNc1cc(-c2cn(-c3ccccc3)nc2-c2cccc(O)c2)ccn1)c1ccc(F)cc1 class 0

What is the recorded call for this compound in the test? CC(=O)OCC(CC[CH2][Sn]([Cl])([Cl])[c]1ccccc1)OC(C)=O (stereo not given) class 0

Identify the outcome logged in this assay for the compound shown: O=C(c1ccco1)c1c(C(F)(F)F)n([O-])c2cc(F)c(F)cc2[n+]1=O class 1

Dear colleague, could you share the recorded outcome for Cc1ccc(-n2c(-c3cc4c([nH]c5ccccc54)c(-c4cccc(O)c4)n3)n[nH]c2=S)cc1 when you have a moment? class 1

Identify the outcome logged in this assay for the compound shown: COc1ccc(S(=O)(=O)N2CCNCC2)cc1OC class 0

Query: recorded result category for C=C1C(=O)O[C@H]2[C@H]1CC/C(COC(=O)NCc1c[nH]c3ccc(F)cc13)=C\CC[C@@]1(C)O[C@@H]21 in this test class 0

Entry source: PubChem BioAssay (NCI)
